Cited source for all entries: patent US9364567B2

- System: in vitro model of the blood brain barrier (brain capillary endothelial cells co-cultured with glial cells)
- assay_remarks: In vitro BBB model: passage of p97 tryptic digest peptides, LC-MS/MS peak areas in luminal and abluminal compartments
- Type: in vitro ADME, rat
- assay_context: tryptic peptides, abluminal compartment, 120 minutes, 3 micron pore size, LC-MS/MS peak area
readout_label: Ablum 120: Area

| macromolecule_sequence | endpoint_value |
| --- | --- |
| EHGLKPVVGEVYDQEVGTSYYAVAVVRR [tryptic peptide fragment of human p97] | 1.70E+07 |
| AVSDYFGGSCVPGAGETSYSESLCR [tryptic peptide fragment of human p97] | 5.49E+08 |
| IQAEQVDAVTLSGEDIYTAGK [tryptic peptide fragment of human p97] | 0.00E+00 |
| TVGWNVPVGYLVESGR [tryptic peptide fragment of human p97] | 0.00E+00 |
| DSSHAFTLDELRGK [tryptic peptide fragment of human p97] | 1.99E+07 |
| LCRGDSSGEGVCDK [tryptic peptide fragment of human p97] | 2.64E+05 |
| GDSSGEGVCDKSPLER [tryptic peptide fragment of human p97] | 1.93E+09 |
